MEASURED_ON: Signal transducer and activator of transcription 3 (Homo sapiens) (UniProt P40763)
Sequence (P40763 whole entry): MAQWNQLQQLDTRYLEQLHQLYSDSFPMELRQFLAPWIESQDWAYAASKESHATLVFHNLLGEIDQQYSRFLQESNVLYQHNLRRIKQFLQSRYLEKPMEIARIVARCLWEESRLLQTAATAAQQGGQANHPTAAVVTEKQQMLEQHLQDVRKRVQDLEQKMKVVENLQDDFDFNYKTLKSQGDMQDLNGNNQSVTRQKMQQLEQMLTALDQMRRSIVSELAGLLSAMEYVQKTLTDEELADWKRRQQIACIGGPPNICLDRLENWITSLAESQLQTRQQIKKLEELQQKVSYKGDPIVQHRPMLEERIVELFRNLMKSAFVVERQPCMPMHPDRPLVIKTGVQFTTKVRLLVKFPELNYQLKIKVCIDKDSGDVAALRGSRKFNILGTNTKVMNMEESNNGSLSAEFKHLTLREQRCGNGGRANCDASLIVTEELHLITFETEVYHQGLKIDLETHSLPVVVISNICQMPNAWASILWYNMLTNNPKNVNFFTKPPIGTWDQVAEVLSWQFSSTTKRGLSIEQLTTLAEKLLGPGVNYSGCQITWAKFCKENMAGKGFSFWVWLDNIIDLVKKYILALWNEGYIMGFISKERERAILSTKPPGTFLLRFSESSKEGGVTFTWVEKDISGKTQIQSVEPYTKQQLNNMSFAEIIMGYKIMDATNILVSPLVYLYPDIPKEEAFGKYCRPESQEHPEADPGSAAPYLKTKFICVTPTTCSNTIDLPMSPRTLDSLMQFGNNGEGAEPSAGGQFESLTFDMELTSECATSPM
METHOD: Inhibition of STAT3 dimerization in human MDA-MB-231 cells assessed as down-regulation of survivin protein expression at 0.1 to 100 uM after 24 hrs by Western blot analysis
Type: cell-based
Activity calls are given as the source filed them. The calls are words filed in the database; no cut-off is given here.
Outcomes: class 1 (active), class 0 (inactive)

| COMPOUND | ASSIGNED_CATEGORY |
| --- | --- |
| COC(=O)[C@H](C)NP(=O)(Oc1ccc(C[C@H](NC(=O)c2ccc(C#N)cc2)C(=O)N[C@@H](CC(C)C)C(=O)OC)cc1)Oc1cccc2ccccc12 (stereo not given in full) | class 1 |
| COC(=O)[C@H](CC(C)C)NC(=O)[C@H](Cc1ccc(OP(=O)(N[C@@H](C)C(=O)OCc2ccccc2)Oc2cccc3ccccc23)cc1)NC(=O)c1ccc(C#N)cc1 (stereo not given in full) | class 1 |
| COC(=O)[C@H](CC(C)C)NC(=O)[C@H](Cc1ccc(OP(=O)(O)O)cc1)NC(=O)c1ccc(C#N)cc1 | class 0 |
| CC(C)C[C@H](NC(=O)[C@H](Cc1ccc(OP(=O)(O)O)cc1)NC(=O)c1ccc(C#N)cc1)C(=O)O | class 0 |
| COC(=O)[C@H](CC(C)C)NC(=O)[C@H](Cc1ccc(OP(=O)(N[C@@H](C)C(=O)OC(C)C)Oc2cccc3ccccc23)cc1)NC(=O)c1ccc(C#N)cc1 (stereo not given in full) | class 1 |

----------
MEASURED_ON: Signal transducer and activator of transcription 3 (Homo sapiens) (UniProt P40763)
METHOD: Inhibition of STAT3 dimerization in human MDA-MB-231 cells assessed as down-regulation of Bcl-xl protein expression at 0.1 to 100 uM after 24 hrs by Western blot analysis
Assay type: cell-based
The source made the active and inactive calls. No cut-off for these calls is given here.
Possible outcomes: active, inactive

| COMPOUND | ASSIGNED_CATEGORY |
| --- | --- |
| COC(=O)[C@H](CC(C)C)NC(=O)[C@H](Cc1ccc(OP(=O)(N[C@@H](C)C(=O)OCc2ccccc2)Oc2cccc3ccccc23)cc1)NC(=O)c1ccc(C#N)cc1 (stereo not given in full) | active |
| CC(C)C[C@H](NC(=O)[C@H](Cc1ccc(OP(=O)(O)O)cc1)NC(=O)c1ccc(C#N)cc1)C(=O)O | inactive |
| COC(=O)[C@H](C)NP(=O)(Oc1ccc(C[C@H](NC(=O)c2ccc(C#N)cc2)C(=O)N[C@@H](CC(C)C)C(=O)OC)cc1)Oc1cccc2ccccc12 (stereo not given in full) | active |
| COC(=O)[C@H](CC(C)C)NC(=O)[C@H](Cc1ccc(OP(=O)(N[C@@H](C)C(=O)OC(C)C)Oc2cccc3ccccc23)cc1)NC(=O)c1ccc(C#N)cc1 (stereo not given in full) | active |
| COC(=O)[C@H](CC(C)C)NC(=O)[C@H](Cc1ccc(OP(=O)(O)O)cc1)NC(=O)c1ccc(C#N)cc1 | inactive |

Where do these numbers come from? They come from ChEMBL document CHEMBL4480359.
